# assay method text: Lipid clearance: % dose remaining, Tables 7c and 8b-8e (species not given)
# Format: in vivo
# conditions used: Table 8b
Measured % Dose Remaining (liver, 24 h) determines class: low: < 40%; middle: ≥ 40% and < 80%; high: ≥ 80%

>>> assigned_category("CCCCCCCCCN(CCCCCCCCC)CCCCCCCCN(CCCCCCCCC)CCN(CCCCCCCCC)CCCCCCCCC [Compound 160]")
"middle"
>>> assigned_category("CCCC/C=C\\CCCCCCCCN(CCCOC(=O)CCCCCCCCC)CC(=O)N1CCN(C(=O)CN(CCCCCCCCC)CCN(CCCCCCCCC)CCCCCCCCC)CC1 [Compound 140]")
"low"
>>> assigned_category("CCCCCCCCCCCCCCN(CCCOC(=O)CCCCCCCCC)CC(=O)N(C)CCN(C)C(=O)CN(CCCCCCCCC)CCN(CCCCCCCCC)CCCCCCCCC [Compound 158]")
"low"
>>> assigned_category("CCCCCCCCCCCCCCN(C/C=C\\COC(=O)CCCCCCCC)CC(=O)N1CCN(C(=O)CN(CCCCCCCCC)CCN(CCCCCCCCC)CCCCCCCCC)CC1 [Compound 141]")
"low"
>>> assigned_category("CCCCCCCCCN(CCCCCCCCC)CCN(CCCCCCCCC)CC(=O)NCCNC(=O)CN(CCCCCCCCC)CCCCCCCCC [Compound 153]")
"high"
>>> assigned_category("CCCCCCCCCN(CCCCCCCCC)CCN(CCCCCCCCC)CC(=O)N(CC)CCN(CC)C(=O)CN(CCCCCCCCC)CCCCCCCCC [Compound 157]")
"middle"

* * *

# assay method text: Encapsulation efficiency of RNA (QUANT-IT RIBOGREEN RNA assay)
# Format: physicochemical
# conditions used: Table 1c; nanoparticle compositions
measured endpoint: EE (%)

>>> reading("CCCCCCCCCN(CCCCCCCCC)CCN(CCCCCCCCC)CC(=O)OC1CCC(OC(=O)CN(CCCCCCCCC)CCCCCCCCC)CC1 (stereo not drawn) [Compound 115]")
97.0
>>> reading("CC/C=C\\COC(=O)CCCN(CCCCCCCCC)CC(=O)N1CCN(C(=O)CN(CCCCCCCCC)CCN(CCCCCCCCC)CCCCCCCCC)CC1 [Compound 107]")
96.6
>>> reading("CCCCCCCCCCCCCCN(CCCCCCCC(=O)OCCCCC)CCC1CCN(C(=O)CN(CCCCCCCCC)CCN(CCCCCCCCC)CCCCCCCCC)CC1 [Compound 93]")
97.7

* * *

# assay method text: Particle size and polydispersity index of nanoparticle compositions (Zetasizer Nano ZS)
# Assay type: physicochemical
# conditions used: Table 1c; nanoparticle compositions
measured endpoint: Size (nm)

>>> reading("CCCCCCCCCCCCCCN(CCCCCCCC(=O)OCCCCC)CCC1CCCN(C(=O)CN(CCCCCCCCC)CCN(CCCCCCCCC)CCCCCCCCC)C1 (stereo not drawn) [Compound 120]")
78.7
>>> reading("CCCCCCCCCCCCCCN(CCCCCCCC(=O)OCCCCC)CCC1CCN(C(=O)CN(CCCCCCCCC)CCN(CCCCCCCCC)CCCCCCCCC)C1 (stereo not drawn) [Compound 124]")
92.7
>>> reading("CCCCCCCCCN(CCCCCCCCC)CCOC(=O)C1CCC(C(=O)OCCN(CCCCCCCCC)CCN(CCCCCCCCC)CCCCCCCCC)CC1 (stereo not drawn) [Compound 128]")
68.0
>>> reading("CCCCCCCCCN(CCCCCCCCC)CCN(CCCCCCCCC)CC(=O)N1CCC(CCOC(=O)CN(CCCCCCCCC)CCCCCCCCC)CC1 [Compound 114]")
77.2
>>> reading("CCCCCCCCCCCCCCN(CCCOC(=O)CCCCCCCCC)CC(=O)N1CCN(C(=O)CN(CCCCCCCCC)CCN(CCCCCCCCC)CCCCCCCCC)CC1 [Compound 89]")
80.1
>>> reading("CCCCCCCCCN(CCCCCCCCC)CCN(CCCCCCCCC)CC(=O)OC1CCC(OC(=O)CN(CCCCCCCCC)CCCCCCCCC)CC1 (stereo not drawn) [Compound 115]")
66.0
>>> reading("CCCCCCCCCCCCCCN(CCCCCCCCCCCC(=O)OC)CCC1CCN(C(=O)CN(CCCCCCCCC)CCN(CCCCCCCCC)CCCCCCCCC)CC1 [Compound 116]")
77.1
>>> reading("CCCCCCCCCN(CCCCCCCCC)CCN(CCCCCCCCC)CC(=O)N1CCC(CCOC(=O)CN(CCCCCCCCC)CCCCCCCCC)C1 (stereo not drawn) [Compound 103]")
76.9
>>> reading("CCCCCCCCCN(CCCCCCCCC)CCN(CCCCCCCCC)CC(=O)N1CCC(COC(=O)CN(CCCCCCCCC)CCCCCCCCC)C1 (stereo not drawn) [Compound 102]")
71.5
>>> reading("CCCCC/C=C\\CCN(CC/C=C\\CCCCC)CCN(CC/C=C\\CCCCC)CC(=O)N1CCN(C(=O)CN(CCCCCCCCC)CCCCCCCC(=O)OC)CC1 [Compound 139]")
83.8
>>> reading("CCCCCCCCCN(CCCCCCCCC)CC(=O)N1CCN(C(=O)CN(CCCCCCCCC)CCCCCCCCC)CC1 [Compound 112]")
73.5
>>> reading("CCCCCC/C=C\\CC(=O)OCCCN(CCCCCCCCCCCCCC)CC(=O)N1CCN(C(=O)CN(CCCCCCCCC)CCN(CCCCCCCCC)CCCCCCCCC)CC1 [Compound 137]")
78.5
